Target: Neprilysin (Oryctolagus cuniculus, UniProt P08049)
Sequence (P08049 whole entry): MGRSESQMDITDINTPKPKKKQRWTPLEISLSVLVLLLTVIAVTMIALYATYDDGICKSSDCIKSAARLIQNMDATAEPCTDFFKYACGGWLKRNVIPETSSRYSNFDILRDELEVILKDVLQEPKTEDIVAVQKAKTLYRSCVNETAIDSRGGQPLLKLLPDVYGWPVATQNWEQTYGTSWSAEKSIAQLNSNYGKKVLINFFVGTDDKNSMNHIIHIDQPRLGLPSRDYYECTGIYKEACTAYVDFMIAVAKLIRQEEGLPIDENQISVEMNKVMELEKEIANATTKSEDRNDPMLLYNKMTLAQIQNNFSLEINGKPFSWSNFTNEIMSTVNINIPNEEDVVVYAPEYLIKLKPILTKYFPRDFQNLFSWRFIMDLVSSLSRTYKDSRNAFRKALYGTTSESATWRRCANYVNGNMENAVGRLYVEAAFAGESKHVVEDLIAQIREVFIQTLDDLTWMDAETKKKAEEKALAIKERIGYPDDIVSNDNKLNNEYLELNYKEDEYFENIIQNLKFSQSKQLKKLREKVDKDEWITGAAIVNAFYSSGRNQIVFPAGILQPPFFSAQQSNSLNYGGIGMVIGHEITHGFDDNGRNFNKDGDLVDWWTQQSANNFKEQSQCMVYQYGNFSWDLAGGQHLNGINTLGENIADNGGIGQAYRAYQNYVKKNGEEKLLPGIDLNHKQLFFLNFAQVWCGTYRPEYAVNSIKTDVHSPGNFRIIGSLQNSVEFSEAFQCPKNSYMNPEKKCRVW
readout-name: Ki (nM)

# smi, result-value
data = [
    ("O=C(O)[C@H](Cc1c[nH]c2ccccc12)NC(=O)[C@@H](CS)[C@@H]1CCCc2ccccc21", 8),
]

###

Molecular target: Angiotensin-converting enzyme (Rattus norvegicus, UniProt P47820)
Sequence (P47820 whole entry): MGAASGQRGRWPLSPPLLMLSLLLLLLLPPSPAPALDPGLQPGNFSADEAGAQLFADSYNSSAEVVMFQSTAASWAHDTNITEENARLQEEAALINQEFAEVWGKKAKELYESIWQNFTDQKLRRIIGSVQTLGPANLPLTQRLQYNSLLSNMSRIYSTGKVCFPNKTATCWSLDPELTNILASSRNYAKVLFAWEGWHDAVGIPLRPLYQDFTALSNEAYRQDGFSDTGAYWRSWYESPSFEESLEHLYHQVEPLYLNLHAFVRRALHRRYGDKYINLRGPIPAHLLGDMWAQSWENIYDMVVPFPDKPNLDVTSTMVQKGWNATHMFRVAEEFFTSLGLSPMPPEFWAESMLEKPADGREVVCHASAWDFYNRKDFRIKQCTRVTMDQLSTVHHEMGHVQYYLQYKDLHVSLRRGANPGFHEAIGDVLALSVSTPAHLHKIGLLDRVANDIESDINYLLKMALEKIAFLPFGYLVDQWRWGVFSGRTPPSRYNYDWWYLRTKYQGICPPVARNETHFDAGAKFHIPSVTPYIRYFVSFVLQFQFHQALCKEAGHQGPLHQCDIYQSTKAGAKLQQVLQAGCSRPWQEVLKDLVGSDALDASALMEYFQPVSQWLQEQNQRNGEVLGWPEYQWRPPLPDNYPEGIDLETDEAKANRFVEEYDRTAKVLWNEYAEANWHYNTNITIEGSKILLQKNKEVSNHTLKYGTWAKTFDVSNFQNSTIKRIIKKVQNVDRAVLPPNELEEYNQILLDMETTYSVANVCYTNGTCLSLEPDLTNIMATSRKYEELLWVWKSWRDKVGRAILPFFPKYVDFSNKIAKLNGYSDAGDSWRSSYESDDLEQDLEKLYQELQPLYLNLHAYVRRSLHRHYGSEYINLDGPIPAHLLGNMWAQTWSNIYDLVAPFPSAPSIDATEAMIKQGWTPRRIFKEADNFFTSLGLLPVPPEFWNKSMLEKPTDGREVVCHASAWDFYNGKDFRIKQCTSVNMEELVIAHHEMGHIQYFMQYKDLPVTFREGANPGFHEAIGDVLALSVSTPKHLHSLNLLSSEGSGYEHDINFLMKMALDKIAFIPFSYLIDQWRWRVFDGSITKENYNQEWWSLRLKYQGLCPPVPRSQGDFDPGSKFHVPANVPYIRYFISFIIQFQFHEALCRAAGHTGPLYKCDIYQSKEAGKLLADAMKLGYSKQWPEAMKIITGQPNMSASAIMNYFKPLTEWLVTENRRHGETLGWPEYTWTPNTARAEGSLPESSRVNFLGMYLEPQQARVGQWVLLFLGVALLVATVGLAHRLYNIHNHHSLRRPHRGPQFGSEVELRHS

# smi, system-tested, Ki
data = [
    ("O=C(O)[C@H](Cc1c[nH]c2ccccc12)NC(=O)[C@@H](CS)[C@@H]1CCCc2ccccc21", "Angiotensin-converting enzyme (Rattus norvegicus, UniProt P47820)", "26 nM"),
]
